# tested_on: F508delCFTR (Homo sapiens, UniProt P13569, DEL508-508)
# Construct: expressed in transfected cells; host or cells: CFBE41o- human lung-derived epithelial cells (CFBE4lo-F508delCFTR-HRP), doxycycline-inducible
# Sequence (P13569 with tags, fused parts or gaps DEL508-508): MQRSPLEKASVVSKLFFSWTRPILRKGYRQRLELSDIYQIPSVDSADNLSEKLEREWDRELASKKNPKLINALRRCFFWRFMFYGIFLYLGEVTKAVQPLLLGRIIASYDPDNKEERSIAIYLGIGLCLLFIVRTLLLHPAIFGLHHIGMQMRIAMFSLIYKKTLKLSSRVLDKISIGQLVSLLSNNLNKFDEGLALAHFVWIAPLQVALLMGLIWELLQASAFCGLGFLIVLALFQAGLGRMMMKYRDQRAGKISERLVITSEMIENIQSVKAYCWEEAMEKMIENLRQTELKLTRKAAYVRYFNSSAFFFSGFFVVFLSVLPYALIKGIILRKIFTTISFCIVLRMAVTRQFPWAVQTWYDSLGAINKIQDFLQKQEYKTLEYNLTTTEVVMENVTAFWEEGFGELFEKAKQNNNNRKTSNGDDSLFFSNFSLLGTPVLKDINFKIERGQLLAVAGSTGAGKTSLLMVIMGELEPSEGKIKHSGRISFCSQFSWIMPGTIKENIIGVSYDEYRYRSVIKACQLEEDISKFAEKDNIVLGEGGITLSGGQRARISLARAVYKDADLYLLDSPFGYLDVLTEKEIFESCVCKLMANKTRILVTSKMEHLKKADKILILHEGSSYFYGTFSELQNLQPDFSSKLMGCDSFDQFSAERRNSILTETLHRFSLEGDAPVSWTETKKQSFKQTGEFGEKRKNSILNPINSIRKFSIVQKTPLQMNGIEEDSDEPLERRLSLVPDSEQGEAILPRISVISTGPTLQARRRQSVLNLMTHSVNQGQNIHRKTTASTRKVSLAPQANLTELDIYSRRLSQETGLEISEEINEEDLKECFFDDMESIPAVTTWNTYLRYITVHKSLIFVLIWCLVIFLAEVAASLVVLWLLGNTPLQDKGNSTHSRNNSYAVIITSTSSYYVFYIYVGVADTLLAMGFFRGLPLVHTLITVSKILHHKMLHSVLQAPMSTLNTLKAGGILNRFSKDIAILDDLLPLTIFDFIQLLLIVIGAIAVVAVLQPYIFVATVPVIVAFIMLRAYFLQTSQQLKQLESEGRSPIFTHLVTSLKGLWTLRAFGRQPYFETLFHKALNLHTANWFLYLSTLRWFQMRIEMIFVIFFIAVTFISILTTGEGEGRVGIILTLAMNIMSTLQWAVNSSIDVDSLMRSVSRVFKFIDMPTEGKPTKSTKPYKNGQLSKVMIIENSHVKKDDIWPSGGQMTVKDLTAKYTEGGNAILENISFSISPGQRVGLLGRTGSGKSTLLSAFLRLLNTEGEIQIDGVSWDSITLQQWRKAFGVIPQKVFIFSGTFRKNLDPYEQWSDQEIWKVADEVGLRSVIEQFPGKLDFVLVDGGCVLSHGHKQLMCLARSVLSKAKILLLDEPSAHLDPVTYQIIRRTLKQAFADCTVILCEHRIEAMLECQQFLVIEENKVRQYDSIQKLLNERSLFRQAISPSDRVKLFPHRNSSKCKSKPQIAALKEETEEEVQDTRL
# run_description: Cell Surface Expression-Horse Radish Peroxidase (CSE-HRP) Assay;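 as to Maximum % activity (with co-corrector): co-corrector and positive control are both the same reference corrector at 2 µM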
# Format: cell-based
# measurement_setup: CSE-HRP; with co-corrector (2 μM); maximum at any tested concentration, normalized to on-plate positive control
property_name: Maximum % activity (with co-corrector)

| molecule | tested_on | property_name | experimental_value |
| --- | --- | --- | --- |
| COc1ncc(C2CCC2)cc1CN[C@H]1[C@H](C(C)(C)C)[C@@H](C(=O)O)N(C(=O)[C@@H]2CCCCO2)[C@H]1c1cccc2c1OCC2 [Example I-301] | F508delCFTR (Homo sapiens, UniProt P13569, DEL508-508) | Maximum % activity (with co-corrector) | +++ (≥350) |
| COc1ccc(-c2ccc(F)cc2C)cc1CN[C@H]1[C@H](C(C)(C)C)[C@@H](C(=O)O)N(C(=O)C2CCCCC2)[C@H]1c1ccccc1 [II-282] | F508delCFTR (Homo sapiens, UniProt P13569, DEL508-508) | Maximum % activity (with co-corrector) | +++ (≥350) |
| COc1ccc(C(C)(C)C)cc1CN[C@H]1[C@H](C(C)(C)C)[C@@H](C(=O)O)N(C(=O)[C@@H](C)OC)[C@H]1c1ccccc1 [II-311] | F508delCFTR (Homo sapiens, UniProt P13569, DEL508-508) | Maximum % activity (with co-corrector) | +++ (≥350) |
| CCOc1cc2c(cc1CN[C@H]1[C@H](C(C)(C)C)[C@@H](C(=O)O)N(C(=O)C3CCCCC3)[C@H]1c1ccccc1)CCC2 [II-129] | F508delCFTR (Homo sapiens, UniProt P13569, DEL508-508) | Maximum % activity (with co-corrector) | +++ (≥350) |
| COc1ccc(C(C)(C)C)cc1CN[C@H]1[C@H](C(C)(C)C)[C@@H](C(=O)O)N(C(=O)C2CCC2)[C@H]1c1ccccc1C(F)(F)F [Example I-277] | F508delCFTR (Homo sapiens, UniProt P13569, DEL508-508) | Maximum % activity (with co-corrector) | +++ (≥350) |
| COc1ccc(C(F)(F)F)cc1CN[C@@H]1[C@@H](C(C)(C)C)[C@H](C(=O)O)N(C(=O)C2CCCCO2)[C@@H]1c1ccccc1N(C)C (mixture of isomers) [II-20] | F508delCFTR (Homo sapiens, UniProt P13569, DEL508-508) | Maximum % activity (with co-corrector) | +++ (≥350) |
| COc1ccc(C(C)(C)C)cc1CN[C@H]1[C@H](C(C)(C)C)[C@@H](C(=O)O)N(C(=O)Cc2cccnc2)[C@H]1c1ccccc1 [II-184] | F508delCFTR (Homo sapiens, UniProt P13569, DEL508-508) | Maximum % activity (with co-corrector) | +++ (≥350) |
| COc1ccccc1CN[C@@H]1[C@@H](C(C)(C)C)[C@H](C(=O)O)N(C(=O)OC(C)C)[C@@H]1c1ccccc1 (racemic) [II-46] | F508delCFTR (Homo sapiens, UniProt P13569, DEL508-508) | Maximum % activity (with co-corrector) | +++ (≥350) |

[in] Request: Maximum % activity (with co-corrector), test system F508delCFTR (Homo sapiens, UniProt P13569, DEL508-508), entry CC(C)(C)[C@H]1[C@H](NCc2cc(Cl)cc(Cl)c2)[C@H](c2ccccc2)N(C(=O)C2CCCCC2)[C@@H]1C(=O)O [II-111]
[out] ++ (≥150 and <350)

[in] Follow-up entry: COc1cc(CN[C@H]2[C@H](C(C)(C)C)[C@@H](C(=O)O)N(C(=O)C3CCCCC3)[C@H]2c2ccccc2)ccc1F [II-112]
[out] ++ (≥150 and <350)

---

# tested_on: F508delCFTR (Homo sapiens, UniProt P13569, DEL508-508)
# Construct: expressed in transfected cells; host or cells: CFBE41o- human lung-derived epithelial cells (CFBE4lo-F508delCFTR-HRP), doxycycline-inducible
# run_description: Cell Surface Expression-Horse Radish Peroxidase (CSE-HRP) Assay;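 as to Maximum % activity (with co-corrector): co-corrector and positive control are both the same reference corrector at 2 µM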
# Type: cell-based
# measurement_setup: CSE-HRP; with co-corrector (2 μM); maximum at any tested concentration, normalized to on-plate positive control
property_name: Maximum % activity (with co-corrector)

Study these solved cases before continuing.
| compound | tested_on | experimental_value |
| --- | --- | --- |
| COc1ccc(OC(F)(F)F)cc1CN[C@H]1[C@H](C(C)(C)C)[C@@H](C(=O)O)N(C(=O)C2CCCCC2)[C@H]1c1ccccc1 [II-190] | F508delCFTR (Homo sapiens, UniProt P13569, DEL508-508) | +++ (≥350) |
| COc1ncc(C(F)(F)F)cc1CN[C@H]1[C@H](C(C)(C)C)[C@@H](C(=O)O)N(C(=O)C2CC2)[C@H]1c1ccccc1C(C)C [Example I-271] | F508delCFTR (Homo sapiens, UniProt P13569, DEL508-508) | +++ (≥350) |
| COc1ccc(C(C)(C)C)cc1CN[C@H]1[C@H](C(C)(C)C)[C@@H](C(=O)O)N(C(=O)Cc2c(F)cccc2F)[C@H]1c1ccccc1 [II-201] | F508delCFTR (Homo sapiens, UniProt P13569, DEL508-508) | +++ (≥350) |
| COc1ccc(-c2cccs2)cc1CN[C@H]1[C@H](C(C)(C)C)[C@@H](C(=O)O)N(C(=O)C2CCCCC2)[C@H]1c1ccccc1 [II-275] | F508delCFTR (Homo sapiens, UniProt P13569, DEL508-508) | +++ (≥350) |

Let us move to another entry and its Maximum % activity (with co-corrector).
[in] So what Maximum % activity (with co-corrector) did COc1ccc(C(C)(C)C)cc1CN[C@H]1[C@H](C(C)(C)C)[C@@H](C(=O)O)N(C(=O)[C@H]2C[C@H](CCC#N)C[C@H]2C)[C@H]1c1ccccc1 [II-173] get with F508delCFTR (Homo sapiens, UniProt P13569, DEL508-508)?
[out] +++ (≥350)

---

# tested_on: F508delCFTR (Homo sapiens, UniProt P13569, DEL508-508)
# Construct: expressed in transfected cells; host or cells: CFBE41o- human lung-derived epithelial cells (CFBE4lo-F508delCFTR-HRP), doxycycline-inducible
# run_description: Cell Surface Expression-Horse Radish Peroxidase (CSE-HRP) Assay
# Assay type: cell-based
# measurement_setup: with co-corrector (2 μM of 3-[(2R,4R)-4-({[1-(2,2-difluoro-1,3-benzodioxol-5-yl)cyclopropyl]carbonyl}amino)-7-methoxy-3,4-dihydro-2H-chromen-2-yl]benzoic acid); read-out: EC50 (with co-corrector)
pEC50: −log10 of the molar value.
List of pEC50 values.

Consider the following illustrative entries.
| compound | tested_on | pEC50 |
| --- | --- | --- |
| COc1ccc(C(C)(C)C)cc1CN[C@H]1[C@H](C(C)(C)C)[C@@H](C(=O)O)N(C(=O)C2CCc3ccccc3C2)[C@H]1c1ccccc1 (stereo partly drawn) | F508delCFTR (Homo sapiens, UniProt P13569, DEL508-508) | > 6.00 |
| COc1ccc(C(C)(C)C)cc1CN[C@H]1[C@H](C(C)(C)C)[C@@H](C(=O)O)N(C(=O)C2(C)CCc3cc(C)ccc32)[C@H]1c1ccccc1 (stereo partly drawn) | F508delCFTR (Homo sapiens, UniProt P13569, DEL508-508) | 5.00 to 6.00 |
| O=C(O)[C@@H]1N(C(=O)C2CCCCC2)[C@H](c2ccccc2)[C@H](NCc2ccccc2OC(F)F)C12CC2 (racemic) | F508delCFTR (Homo sapiens, UniProt P13569, DEL508-508) | 5.00 to 6.00 |
| COc1nc(C(C)(C)C)ccc1CN[C@H]1[C@H](C(C)(C)C)[C@@H](C(=O)O)N(C(=O)C2CCCCC2)[C@H]1c1ccccc1 | F508delCFTR (Homo sapiens, UniProt P13569, DEL508-508) | > 6.00 |

[in] Give its pEC50 value. Item: COc1cc(C(F)(F)F)ccc1CN[C@@H]1[C@@H](C(C)(C)C)[C@H](C(=O)O)N(C(=O)C2COCCO2)[C@@H]1c1ccccc1 (mixture of isomers)
[out] 5.00 to 6.00

[in] Same read-out for `COc1ncc(CC(C)C)cc1CN[C@H]1[C@H](C(C)(C)C)[C@@H](C(=O)O)N(C(=O)C2CCCCC2)[C@H]1c1ccccc1` ?
[out] > 6.00

[in] Try COc1ccc(C(C)(C)C)cc1CN[C@H]1[C@H](C(C)(C)C)[C@@H](C(=O)O)N(C(=O)C(C)Oc2cccc(C)c2C)[C@H]1c1ccccc1 (stereo partly drawn) next.
[out] > 6.00

[in] Okay, and COc1cc(C(F)(F)F)ccc1CN[C@@H]1[C@@H](C(C)(C)C)[C@H](C(=O)O)N(C(=O)C2CCCCC2)[C@@H]1c1ccccc1OC [III-95] ?
[out] 5.00 to 6.00

[in] Please give the result for `Cc1cc(C(F)(F)F)cc(N[C@H]2[C@H](C(C)(C)C)[C@@H](C(=O)O)N(C(=O)[C@H]3CCCCO3)[C@H]2c2cccnc2N(C)C)n1` too.
[out] 5.00 to 6.00

[in] Item: `COc1ccc(C2(C(F)(F)F)CC2)cc1CN[C@H]1[C@H](C(C)(C)C)[C@@H](C(=O)O)N(C(=O)OC(C)C)[C@H]1c1ccccc1`
[out] > 6.00

[in] Cool, now `COc1cc(C(F)(F)F)ccc1CN[C@H]1[C@H](C(C)(C)C)[C@@H](C(=O)O)N(C(=O)[C@@H]2CCCCO2)[C@H]1c1ccccc1`
[out] 5.00 to 6.00

[in] Now consider COc1ccc(C(C)(C)C)cc1CN[C@H]1[C@H](C(C)(C)C)[C@@H](C(=O)O)N(C(=O)C(C)C2CCCCO2)[C@H]1c1ccccc1 (stereo partly drawn) and answer again.
[out] 5.00 to 6.00

[in] Param item: COc1ncc(C2CCC2)cc1CN[C@H]1[C@H](C(C)(C)C)[C@@H](C(=O)O)N(C(=O)C2CCc3cc(F)ccc3O2)[C@H]1c1ccccc1 (stereo partly drawn)
[out] 5.00 to 6.00

[in] # repeat for `CCc1ccccc1[C@H]1[C@@H](NCc2cc(C3CCC3)cnc2OC)[C@H](C(C)(C)C)[C@@H](C(=O)O)N1C(=O)[C@@H]1CCCO1`
[out] 5.00 to 6.00

[in] Note, next up: `COc1ccc(C23CC(C2)C3)cc1CN[C@H]1[C@H](C(C)(C)OC)[C@@H](C(=O)O)N(C(=O)OC(C)C)[C@H]1c1cccnc1N(C)C`
[out] 5.00 to 6.00

[in] Note, next up: `COc1ccc(C(F)(F)F)cc1CN[C@H]1[C@H](C(C)(C)C)[C@@H](C(=O)O)N(C(=O)OC(C)C)[C@H]1c1cccnc1OC(C)C`
[out] 5.00 to 6.00

[in] Try this compound too: `COc1ncc(C(F)(F)F)cc1CN[C@H]1[C@H](C(C)(C)C)[C@@H](C(=O)O)N(C(=O)OC(C)C)[C@H]1c1ccccc1C(C)C`
[out] 5.00 to 6.00

[in] Likewise for COc1ncc(C(F)(F)F)cc1CN[C@H]1[C@H](C(C)(C)C)[C@@H](C(=O)O)N(C(=O)C2Cc3cccc(C)c3O2)[C@H]1c1ccccc1 (stereo partly drawn) ?
[out] 5.00 to 6.00

[in] Here is the next compound: `COc1ccc(C2=CCOCC2)cc1CN[C@H]1[C@H](C(C)(C)C)[C@@H](C(=O)O)N(C(=O)C2CCCCC2)[C@H]1c1ccccc1`
[out] 5.00 to 6.00

[in] And `COc1ccc(C(C)(C)C)cc1CN[C@H]1[C@H](C(C)(C)C)[C@@H](C(=O)O)N(C(=O)c2ccc(OC3CCCCC3)cc2)[C@H]1c1cccnc1N(C)C` ?
[out] > 6.00

[in] What do you have for `COc1ncc(C(F)(F)F)cc1CN[C@H]1[C@H](C(C)(C)C)[C@@H](C(=O)O)N(C(=O)C2CCCCC2)[C@H]1c1ccc(F)cc1` ?
[out] > 6.00

[in] What about `COc1ccc(C(C)(C)C)cc1CN[C@H]1[C@H](C(C)(C)C)[C@@H](C(=O)O)N(C(=O)Cc2ccc(F)cc2F)[C@H]1c1ccccc1` ?
[out] > 6.00

[in] Input `COc1nc(C(C)(C)C)ccc1CN[C@H]1[C@H](C(C)(C)C)[C@@H](C(=O)O)N(C(=O)C2CCCCC2)[C@H]1c1ccccc1F`
[out] 5.00 to 6.00

[in] Next record, please: `COc1ncc(C(F)(F)F)cc1CN[C@H]1[C@H](C(C)(C)C)[C@@H](C(=O)O)N(C(=O)[C@@H]2CCCO2)[C@H]1c1cccnc1N(C)C`
[out] 5.00 to 6.00
